Provenance of the data: ChEMBL document CHEMBL3132860

// reported Efficacy for each item listed
# tested-target: Estrogen receptor beta (Homo sapiens, UniProt Q92731)
# Sequence (Q92731 whole entry): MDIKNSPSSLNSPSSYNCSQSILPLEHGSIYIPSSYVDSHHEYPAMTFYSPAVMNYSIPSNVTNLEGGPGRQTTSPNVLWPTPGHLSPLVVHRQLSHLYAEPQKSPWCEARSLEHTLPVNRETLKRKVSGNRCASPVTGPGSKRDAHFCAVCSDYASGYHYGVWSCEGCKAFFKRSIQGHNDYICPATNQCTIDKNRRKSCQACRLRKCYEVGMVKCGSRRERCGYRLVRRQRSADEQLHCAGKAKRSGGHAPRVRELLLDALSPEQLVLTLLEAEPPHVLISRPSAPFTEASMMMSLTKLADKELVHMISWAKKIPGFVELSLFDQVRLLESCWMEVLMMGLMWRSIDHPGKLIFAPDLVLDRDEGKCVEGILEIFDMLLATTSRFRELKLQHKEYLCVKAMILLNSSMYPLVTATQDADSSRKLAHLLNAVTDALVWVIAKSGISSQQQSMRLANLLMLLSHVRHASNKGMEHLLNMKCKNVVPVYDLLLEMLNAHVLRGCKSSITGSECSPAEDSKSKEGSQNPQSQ
# assay-notes: Agonist activity at ER-beta (unknown origin) transfected in HEK293T cells after 24 hrs by Steady-Glo luciferase reporter gene assay relative to estradiol
# Assay type: cell-based
# test-context: HEK-293T
Enter your answer as a number in %; do not include the unit.

Query block: Entry C[C@]12CC[C@H](c3ccc(O)cc3)C[C@H]1CCC2=O has what Efficacy?
Result block: 148

Query block: Recorded Efficacy of C[C@]12CCC(c3ccc(O)cc3)C[C@H]1CC[C@@H]2O (some centres undefined) , please.
Result block: 127

Query block: Reported Efficacy, compound C[C@]12CC[C@@H](c3ccc(O)cc3)C[C@H]1CCC2=O : ____
Result block: 144

Continuing:
Query block: Which measured Efficacy value corresponds to C[C@]12CC[C@H](c3ccc(O)cc3)C[C@H]1C[C@H](O)[C@H]2O ?
Result block: 108

* * *

# tested-target: Estrogen receptor beta (Homo sapiens, UniProt Q92731)
# assay-notes: Agonist activity at human ER-beta transfected in human 293 cells assessed as ALP reporter protein expression after 72 hrs by chemiluminescence assay
# Type: cell-based
endpoint-label: pEC50
# pEC50: negative log10 of molar concentration; output just the value

Query block: Sample C[C@]12CC[C@@H]3c4ccc(O)cc4CC[C@H]3[C@@H]1C[C@H](O)[C@H]2O — what was its pEC50?
Result block: 7.96

* * *

# tested-target: Estrogen receptor (Homo sapiens, UniProt P03372)
# Sequence (P03372 whole entry): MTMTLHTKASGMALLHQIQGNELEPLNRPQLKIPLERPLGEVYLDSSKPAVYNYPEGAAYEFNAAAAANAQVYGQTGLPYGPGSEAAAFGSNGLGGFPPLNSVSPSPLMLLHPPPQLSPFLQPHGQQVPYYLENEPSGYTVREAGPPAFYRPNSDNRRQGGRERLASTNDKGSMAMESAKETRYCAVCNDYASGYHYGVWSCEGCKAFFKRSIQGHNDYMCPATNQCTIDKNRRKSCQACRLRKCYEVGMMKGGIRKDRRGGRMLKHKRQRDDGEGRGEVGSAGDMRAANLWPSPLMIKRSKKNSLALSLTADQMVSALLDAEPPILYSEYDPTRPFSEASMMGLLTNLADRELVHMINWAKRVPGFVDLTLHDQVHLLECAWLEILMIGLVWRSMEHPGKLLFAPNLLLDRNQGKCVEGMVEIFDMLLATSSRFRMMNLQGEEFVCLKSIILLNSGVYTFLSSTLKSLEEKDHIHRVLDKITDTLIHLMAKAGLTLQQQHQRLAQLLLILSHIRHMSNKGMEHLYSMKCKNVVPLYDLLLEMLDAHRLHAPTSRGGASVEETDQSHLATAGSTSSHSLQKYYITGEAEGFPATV
endpoint-label: EC50 (µM)
Give just the numeric value; µM need not be written.

Here are 2 compounds together with their reported answers.
Query block: Estrogen receptor (Homo sapiens, UniProt P03372) / EC50 / C[C@]12CCC(c3ccc(O)cc3)C[C@H]1CC[C@@H]2O (some centres undefined) : value?
Result block: 0.0316

Query block: Provide the documented EC50 with Estrogen receptor (Homo sapiens, UniProt P03372) as the system for C[C@]12CC[C@H](c3ccc(O)cc3)C[C@H]1C[C@H](O)[C@H]2O
Result block: 10

Next:
Query block: Lab note: need EC50 with Estrogen receptor (Homo sapiens, UniProt P03372) for entry C[C@]12CC[C@@H](c3ccc(O)cc3)C[C@H]1CCC2=O , please look it up.
Result block: 7.94

* * *

Listing: log10 of EC50 of selected compounds
# tested-target: Estrogen receptor beta (Homo sapiens)
Form field - Quantity: EC50; Unit: nM; Scale: log10

Please review the entries below; each comes with its answer.
Query block: What does the data say about its log10 of EC50? Entry: C[C@]12CC[C@@H](c3ccc(O)cc3)C[C@H]1CCC2=O
Result block: 2.10

Query block: Entry C[C@]12CCC(c3ccc(O)cc3)C[C@H]1CC[C@@H]2O (stereo not given in full) : reported log10 of EC50 = ?
Result block: -0.40

More entries:
Query block: Bench note: what log10 of EC50 did C[C@]12CC[C@H](c3ccc(O)cc3)C[C@H]1CCC2=O show?
Result block: 2.40

Query block: // log10 of EC50 lookup, key: C[C@]12CC[C@H](c3ccc(O)cc3)C[C@H]1C[C@H](O)[C@H]2O
Result block: 1.30

Query block: Look at this compound and give its reported log10 of EC50. C[C@]12CC[C@@H]3c4ccc(O)cc4CC[C@H]3[C@@H]1C[C@@H](O)[C@@H]2O
Result block: -0.90
